Target: T1, human PD-1 (soluble analyte in SPR) (human, UniProt Q15116 25-170, limits assumed)
T1 construct: also called CD279; PDCD1
T1 sequence (Q15116 25-170 limits assumed): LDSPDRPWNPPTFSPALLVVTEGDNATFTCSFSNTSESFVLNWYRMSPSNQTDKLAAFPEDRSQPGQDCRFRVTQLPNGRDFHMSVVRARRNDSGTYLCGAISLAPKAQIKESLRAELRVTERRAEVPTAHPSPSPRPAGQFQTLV
Assay: SPR (ProteOn XPR36), mAb captured on anti-human IgG Fc, human PD-1 as analyte, 25 C
Known Kd of a selection of binders
Just so you know, I need the unit written after the number.

binder	Kd
PD1B1094 (antibody, human IgG1, kappa, V domains shown, also called VH PD1H586; VL PD1L652) VH: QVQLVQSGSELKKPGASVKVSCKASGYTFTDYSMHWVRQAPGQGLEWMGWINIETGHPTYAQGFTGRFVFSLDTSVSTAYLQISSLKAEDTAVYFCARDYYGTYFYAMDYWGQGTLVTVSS VL: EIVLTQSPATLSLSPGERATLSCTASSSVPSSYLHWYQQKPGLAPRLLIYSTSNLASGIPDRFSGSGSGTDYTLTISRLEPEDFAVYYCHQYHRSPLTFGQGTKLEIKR	0.871 nM

Turning now to a further record.
Request: Recorded Kd of PD1B1092 (antibody, human IgG1, kappa, V domains shown, also called VH PD1H587; VL PD1L651) VH: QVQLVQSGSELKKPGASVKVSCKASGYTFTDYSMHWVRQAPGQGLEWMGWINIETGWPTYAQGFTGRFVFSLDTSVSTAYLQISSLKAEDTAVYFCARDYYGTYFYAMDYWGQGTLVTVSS VL: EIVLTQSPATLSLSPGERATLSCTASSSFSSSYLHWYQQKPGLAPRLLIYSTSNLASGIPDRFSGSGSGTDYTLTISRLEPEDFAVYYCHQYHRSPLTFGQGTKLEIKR , please.
Result: 0.214 nM

Source of measurements: patent US20180355061A1
